As shown below, each of these binders has a reported Human T-cell Binding 2 uM (MFI) value.
# TARGET_DESC: T1, human CD8 alpha (CD8A) on primary human CD8+ T cells (human, UniProt P01732 22-235)
# T1 construct: whole, on cells; also called hCD8A
# ASSAY: flow cytometry, human CD8+ T cells, 2 uM FN3
Report the value in MFI with no unit label.

Task item: Give a short answer stating reported Human T-cell Binding 2 uM (MFI) for P282FR9P1361_C7 (designed binder, FN3 domain) LPAPKNLVVSRVTEDSARLSWTAPDAAFDSFGIWYHEYGGDGEAIVLTVPGSERSYDLTGLKPGTEYDVAIWGVKGGDVSYPLSAIFTT .
Reply: 8540

Task item: Give a short answer stating reported Human T-cell Binding 2 uM (MFI) for P282BR9P1357_B2 (designed binder, FN3 domain) LPAPKNLVVSRVTEDSARLSWNPSEDPQRFDSFLIQYQESEKVGEAIVLTVPGSERSYDLTGLKPGTEYTVSIYGVDVKWEGNRPVASNPLSAIFTT .
Reply: 5930

Task item: Give a short answer stating reported Human T-cell Binding 2 uM (MFI) for P283BR9P1363_A10 (designed binder, FN3 domain) LPAPKNLVVSRVTEDSARLSWQRADDILPYFDSFLIQYQESEKVGEAIVLTVPGSERSYDLTGLKPGTEYTVSIYGVDVKYDIDSRPISSNPLSAIFTT .
Reply: 7890

Others:
Task item: Give a short answer stating reported Human T-cell Binding 2 uM (MFI) for P282FR9P1361_F11 (designed binder, FN3 domain) LPAPKNLVVSRVTEDSARLSWTAPDAAFDSFGIWYREYGGSGEAIVLTVPGSERSYDLTGLKPGTEYDVAIWGVKGGVRSYPLSAIFTT .
Reply: 2190

Task item: Give a short answer stating reported Human T-cell Binding 2 uM (MFI) for P282DR9P1359_D12 (designed binder, FN3 domain) LPAPKNLVVSRVTEDSARLSWTAPDAAFDSFRIAYPETATWGEAIVLTVPGSERSYDLTGLKPGTEYFVIIYGVKGGFESAPLSAIFTT .
Reply: 4540

Task item: Give a short answer stating reported Human T-cell Binding 2 uM (MFI) for P282DR9P1359_C12 (designed binder, FN3 domain) LPAPKNLVVSRVTEDSARLSWTAPDAAFDSFYISYPEWPVPGEAIVLTVPGSERSYDLTGLKPGTEYWVVIYGVKGGALSVPLSAIFTT .
Reply: 15100
